- experimental target: PIM1 (Homo sapiens)
- Sequence (P11309 whole entry): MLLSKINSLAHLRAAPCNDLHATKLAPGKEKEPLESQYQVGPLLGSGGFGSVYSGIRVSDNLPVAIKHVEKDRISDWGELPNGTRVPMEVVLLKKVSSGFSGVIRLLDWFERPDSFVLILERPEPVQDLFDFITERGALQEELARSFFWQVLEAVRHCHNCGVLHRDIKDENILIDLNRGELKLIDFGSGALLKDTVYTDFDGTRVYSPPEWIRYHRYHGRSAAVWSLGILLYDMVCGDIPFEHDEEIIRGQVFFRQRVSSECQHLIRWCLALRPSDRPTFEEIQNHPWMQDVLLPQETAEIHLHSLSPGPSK
- protocol text: Kinase selectivity IC50, PIM1
- Assay type: biochemical
- protocol conditions: 1 mM ATP with preincubation; mean of duplicated assays
- Procedure: To investigate the representative kinase selectivity of these compounds at physiological ATP levels, compound 13 was screened over a panel of 121 kinases in the presence of 1 mM ATP with preincubation method. […] IC50 values of hit kinases were determined to confirm the selectivity of compound 13.
measured quantity: IC50 (nM)

{"smiles str": "CCOC(=O)C1=C(Nc2ccccc2Cl)OC(=Cc2c[nH]c3ncccc23)C1=O", "units symbol": "nM", "observed": 77}

---

- experimental target: human Cdc7/human ASK complex protein (Homo sapiens)
- Construct: purchased Carna Biosciences, Inc
- Sequence (O00311 whole entry): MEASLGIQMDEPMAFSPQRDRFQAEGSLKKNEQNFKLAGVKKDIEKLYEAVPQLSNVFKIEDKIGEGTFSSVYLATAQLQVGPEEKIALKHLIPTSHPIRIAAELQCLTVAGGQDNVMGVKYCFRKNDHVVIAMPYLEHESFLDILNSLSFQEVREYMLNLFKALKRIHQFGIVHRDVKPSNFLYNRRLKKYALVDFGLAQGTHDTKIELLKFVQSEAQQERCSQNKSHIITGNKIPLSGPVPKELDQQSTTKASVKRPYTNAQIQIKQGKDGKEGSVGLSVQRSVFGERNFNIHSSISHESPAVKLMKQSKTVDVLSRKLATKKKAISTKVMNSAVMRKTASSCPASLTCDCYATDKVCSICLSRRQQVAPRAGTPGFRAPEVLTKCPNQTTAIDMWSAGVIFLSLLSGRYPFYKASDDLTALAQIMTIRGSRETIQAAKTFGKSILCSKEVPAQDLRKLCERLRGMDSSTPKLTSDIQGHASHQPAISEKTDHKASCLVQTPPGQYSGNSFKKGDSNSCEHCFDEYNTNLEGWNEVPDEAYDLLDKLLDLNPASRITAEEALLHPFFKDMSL
- Sequence (Q9UBU7 whole entry partner): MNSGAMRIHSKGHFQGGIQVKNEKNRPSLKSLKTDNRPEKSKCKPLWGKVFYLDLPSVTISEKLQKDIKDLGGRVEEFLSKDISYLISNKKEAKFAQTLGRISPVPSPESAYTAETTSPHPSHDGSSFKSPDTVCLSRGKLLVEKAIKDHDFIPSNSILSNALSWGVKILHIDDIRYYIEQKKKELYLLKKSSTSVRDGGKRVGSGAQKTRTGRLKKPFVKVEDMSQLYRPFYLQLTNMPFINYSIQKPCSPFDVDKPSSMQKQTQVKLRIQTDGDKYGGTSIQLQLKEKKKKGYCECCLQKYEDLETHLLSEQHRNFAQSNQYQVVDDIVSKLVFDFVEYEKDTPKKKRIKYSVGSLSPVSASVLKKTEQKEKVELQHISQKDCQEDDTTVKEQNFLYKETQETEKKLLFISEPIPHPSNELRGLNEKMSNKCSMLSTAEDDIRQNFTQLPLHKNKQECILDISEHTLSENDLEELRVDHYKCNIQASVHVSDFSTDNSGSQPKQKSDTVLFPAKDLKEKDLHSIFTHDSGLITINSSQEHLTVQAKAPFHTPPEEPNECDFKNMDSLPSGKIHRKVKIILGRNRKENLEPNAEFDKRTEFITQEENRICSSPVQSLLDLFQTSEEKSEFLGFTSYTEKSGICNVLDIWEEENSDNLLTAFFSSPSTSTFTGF
- protocol text: Cdc7/ASK enzymatic assay
- Format: biochemical
- protocol conditions: 5 μM ATP; mean of duplicated assays; read-out: Cdc7 IC50
Counter-ions that a name gives are not always drawn.
Strictly below 20 nM in IC50: true (1). Otherwise: false (0).

{"compound": "CCOC(=O)C1=C(Nc2cccnc2)OC(=Cc2c[nH]c3ncccc23)C1=O", "experimental target": "human Cdc7/human ASK complex protein (Homo sapiens)", "answer label": "true (1)"}
{"compound": "CCOC(=O)C1=C(Nc2ccccc2)SC(=Cc2c[nH]c3ncccc23)C1=O", "experimental target": "human Cdc7/human ASK complex protein (Homo sapiens)", "answer label": "false (0)"}
{"compound": "CCOC(=O)C1=C(Nc2ccccc2)OC(=Cc2c[nH]c3ncc(Cl)cc23)C1=O", "experimental target": "human Cdc7/human ASK complex protein (Homo sapiens)", "answer label": "false (0)"}
{"compound": "CCOC(=O)C1=C(Nc2cncnc2)O/C(=C\\c2c[nH]c3ncccc23)C1=O", "experimental target": "human Cdc7/human ASK complex protein (Homo sapiens)", "answer label": "true (1)"}
{"compound": "O=C(O)C1=C(Nc2ccccc2)O/C(=C\\c2c[nH]c3ncccc23)C1=O", "experimental target": "human Cdc7/human ASK complex protein (Homo sapiens)", "answer label": "true (1)"}
{"compound": "CCOC(=O)C1=C(Nc2ccc3ncccc3c2)O/C(=C\\c2c[nH]c3ncccc23)C1=O", "experimental target": "human Cdc7/human ASK complex protein (Homo sapiens)", "answer label": "false (0)"}
{"compound": "CCOC(=O)C1=C(Nc2cccc(OC)c2)OC(=Cc2c[nH]c3ncccc23)C1=O", "experimental target": "human Cdc7/human ASK complex protein (Homo sapiens)", "answer label": "false (0)"}
{"compound": "CCOC(=O)C1=C(Nc2ccccc2)OC(=Cc2ccc(O)c(C)c2)C1=O", "experimental target": "human Cdc7/human ASK complex protein (Homo sapiens)", "answer label": "false (0)"}
{"compound": "CCOC(=O)C1=C(Nc2ccc(C)cc2)OC(=Cc2c[nH]c3ncccc23)C1=O", "experimental target": "human Cdc7/human ASK complex protein (Homo sapiens)", "answer label": "true (1)"}
{"compound": "CCOC(=O)C1=C(Nc2ccc(F)cc2F)OC(=Cc2c[nH]c3ncccc23)C1=O", "experimental target": "human Cdc7/human ASK complex protein (Homo sapiens)", "answer label": "true (1)"}
{"compound": "CCOC(=O)C1=C(Nc2cc[nH]n2)O/C(=C\\c2c[nH]c3ncccc23)C1=O", "experimental target": "human Cdc7/human ASK complex protein (Homo sapiens)", "answer label": "true (1)"}
{"compound": "NC(=O)C1=C(Nc2ccccc2)O/C(=C\\c2c[nH]c3ncccc23)C1=O", "experimental target": "human Cdc7/human ASK complex protein (Homo sapiens)", "answer label": "false (0)"}
{"compound": "CCOC(=O)C1=C(Nc2ccccc2Cl)OC(=Cc2c[nH]c3ncccc23)C1=O", "experimental target": "human Cdc7/human ASK complex protein (Homo sapiens)", "answer label": "true (1)"}
{"compound": "CCOC(=O)C1=C(NCc2ccccc2)O/C(=C\\c2c[nH]c3ncccc23)C1=O [Compound 32, hydrochloride]", "experimental target": "human Cdc7/human ASK complex protein (Homo sapiens)", "answer label": "false (0)"}
{"compound": "CCOC(=O)C1=C(Nc2ccccn2)OC(=Cc2c[nH]c3ncccc23)C1=O", "experimental target": "human Cdc7/human ASK complex protein (Homo sapiens)", "answer label": "false (0)"}
{"compound": "CCOC(=O)C1=C(Nc2ccccc2F)OC(=Cc2c[nH]c3ncccc23)C1=O", "experimental target": "human Cdc7/human ASK complex protein (Homo sapiens)", "answer label": "true (1)"}
{"compound": "CCOC(=O)C1=C(Nc2ccc(F)cc2)OC(=Cc2c[nH]c3ncccc23)C1=O", "experimental target": "human Cdc7/human ASK complex protein (Homo sapiens)", "answer label": "true (1)"}
{"compound": "CCOC(=O)C1=C(Nc2ccc(OC)cc2)OC(=Cc2c[nH]c3ncccc23)C1=O", "experimental target": "human Cdc7/human ASK complex protein (Homo sapiens)", "answer label": "true (1)"}
{"compound": "CCOC(=O)C1=C(NCCc2ccccc2)O/C(=C\\c2c[nH]c3ncccc23)C1=O [Compound 33, hydrochloride]", "experimental target": "human Cdc7/human ASK complex protein (Homo sapiens)", "answer label": "false (0)"}
{"compound": "CCOC(=O)C1=C(Nc2ccncc2)OC(=Cc2c[nH]c3ncccc23)C1=O", "experimental target": "human Cdc7/human ASK complex protein (Homo sapiens)", "answer label": "true (1)"}
{"compound": "CCOC(=O)C1=C(Nc2ccccc2C)OC(=Cc2c[nH]c3ncccc23)C1=O", "experimental target": "human Cdc7/human ASK complex protein (Homo sapiens)", "answer label": "true (1)"}
{"compound": "CCOC(=O)C1=C(Nc2ccccc2)OC(=Cc2ccc3c(c2)OCO3)C1=O", "experimental target": "human Cdc7/human ASK complex protein (Homo sapiens)", "answer label": "false (0)"}
{"compound": "CCOC(=O)C1=C(Nc2ccccc2OC)OC(=Cc2c[nH]c3ncccc23)C1=O", "experimental target": "human Cdc7/human ASK complex protein (Homo sapiens)", "answer label": "true (1)"}
{"compound": "CCOC(=O)C1=C(Nc2ccc(C)cc2C)OC(=Cc2c[nH]c3ncccc23)C1=O", "experimental target": "human Cdc7/human ASK complex protein (Homo sapiens)", "answer label": "true (1)"}
{"compound": "CCOC(=O)C1=C(Nc2ccc(Cl)cc2)OC(=Cc2c[nH]c3ncccc23)C1=O", "experimental target": "human Cdc7/human ASK complex protein (Homo sapiens)", "answer label": "true (1)"}
{"compound": "CCOC(=O)C1=C(Nc2ccc3cn[nH]c3c2)OC(=Cc2c[nH]c3ncccc23)C1=O", "experimental target": "human Cdc7/human ASK complex protein (Homo sapiens)", "answer label": "true (1)"}
{"compound": "CCOC(=O)C1=C(Nc2cccc(Cl)c2)OC(=Cc2c[nH]c3ncccc23)C1=O", "experimental target": "human Cdc7/human ASK complex protein (Homo sapiens)", "answer label": "true (1)"}
